Values from ChEMBL document CHEMBL1154065

Would you kindly list AUC(0-t) at 6 h for each of these compounds?
- assay.notes: AUC (0 to 6 hrs) in rat at 10 mg/kg, po
- Format: ADME, organism-based
- Parameters: time < 6 hr, dose 10 mg/kg, route oral
- condition.parameters: plasma
In your response, the unit should come after the numeric value.

Count: 2. Required value per item: AUC(0-t) at 6 h.
1. C=CCNC(=O)C(=O)C(CCCC)NC(=O)[C@@H]1[C@@H]2[C@H](CN1C(=O)[C@@H](NC(=O)N[C@H](CN(C)S(=O)(=O)CC)C(C)(C)C)C1Cc3ccccc3C1)C2(C)C (some centres not stated)
2. C=CCNC(=O)C(=O)C(CCCC)NC(=O)[C@@H]1[C@@H]2[C@H](CN1C(=O)[C@@H](NC(=O)N[C@H](CN(C)S(=O)(=O)N(C)C)C(C)(C)C)C1CCCCC1)C2(C)C (some centres not stated)

["1200 nM·h", "1740 nM·h"]

* * *

- assay.notes: Inhibition of HCV NS3 protease by continuous spectrophotometric assay
- Design: species or system Hepacivirus hominis
observation.type: pKi
Give bare numbers, as −log10 of the molar value.

Some solved entries appear below for comparison.
compound	pKi
C=CCNC(=O)C(=O)C(CCCC)NC(=O)[C@@H]1[C@@H]2[C@H](CN1C(=O)[C@@H](NC(=O)N[C@H](CN(C)S(=O)(=O)N(C)C)C(C)(C)C)C1CCCCC1)C2(C)C (stereo not given in full)	8.22
CN(C[C@@H](NC(=O)N[C@H](C(=O)N1C[C@H]2[C@@H]([C@H]1C(=O)NC(CC1CCC1)C(=O)C(N)=O)C2(C)C)C(C)(C)C)C(C)(C)C)S(=O)(=O)C1CC1 (stereo not given in full)	8.30
CC(C)[C@@H](CN(C)S(=O)(=O)c1ccccc1)NC(=O)N[C@H](C(=O)N1C[C@H]2[C@@H]([C@H]1C(=O)NC(CC1CC1)C(=O)C(N)=O)C2(C)C)C(C)(C)C (stereo not given in full)	8.10
C=CCNC(=O)C(=O)C(CCC)NC(=O)[C@@H]1[C@@H]2[C@H](CN1C(=O)[C@@H](NC(=O)N[C@H](CN(C)S(=O)(=O)N(C)C)C(C)(C)C)C1Cc3ccccc3C1)C2(C)C (stereo not given in full)	7.96

What value of measured pKi is listed for CN(C[C@@H](NC(=O)N[C@H](C(=O)N1C[C@H]2[C@@H]([C@H]1C(=O)NC(CC1CCC1)C(=O)C(N)=O)C2(C)C)C(C)(C)C)C(C)(C)C)S(C)(=O)=O (stereo not given in full) ?
8.30

* * *

- assay.notes: AUC (0 to 6 hrs) in monkey at 3 mg/kg, po
- Assay type: ADME, organism-based, Macaca mulatta
- Set-up: time < 6 hr, dose 3 mg/kg, route oral
- condition.parameters: rhesus monkey, plasma
observation.type: AUC(0-t) at 6 h
Please give the number followed by its unit.

If you can, please state the reported AUC(0-t) at 6 h value of C=CCNC(=O)C(=O)C(CCCC)NC(=O)[C@@H]1[C@@H]2[C@H](CN1C(=O)[C@@H](NC(=O)N[C@H](CN(C)S(=O)(=O)CC)C(C)(C)C)C1Cc3ccccc3C1)C2(C)C (stereo partly specified) .
0.69 µM·h
